# experimentalSystem: GST fusion protein containing the Met kinase domain (Homo sapiens)
# Construct: Purified GST fusion protein containing the Met kinase domain, Sugen, Inc
# Sequence (P08581 1078-1345 limits assumed): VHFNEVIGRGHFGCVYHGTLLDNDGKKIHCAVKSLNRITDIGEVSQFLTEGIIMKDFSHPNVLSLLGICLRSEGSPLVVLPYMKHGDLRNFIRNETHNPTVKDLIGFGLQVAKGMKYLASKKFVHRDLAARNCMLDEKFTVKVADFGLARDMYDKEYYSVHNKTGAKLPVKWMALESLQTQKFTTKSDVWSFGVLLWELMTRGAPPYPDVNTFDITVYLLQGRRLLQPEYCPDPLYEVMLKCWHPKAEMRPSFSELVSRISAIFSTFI
# test: MET Transphosphorylation Assay (ELISA, poly(Glu,Tyr) 4:1 substrate)
# conditionsUsed: met transphosphorylation of poly(glutamic acid:tyrosine 4:1) substrate; two values in a cell separated by '/'
Structures can show the parent of a compound that is named as a salt.
Rule: measured IC50 below 200 nM gets Y; anything equal to or greater than 200 nM gets N.

compound	classification
O=C(Cc1ccc(O)c(Cl)c1)N/N=C1\C(=O)Nc2ccc(C(=O)N3CCC(NC4CC4)CC3)c(Cl)c21	Y
O=C1Nc2ccccc2/C1=N/NC(=O)C1(c2ccccc2)CC1	N
COc1cc(Cl)c2c(c1Cl)/C(=N/NC(=O)Cc1ccc(O)cc1)C(=O)N2	Y
O=C(Cc1ccc(O)cc1)N/N=C1\C(=O)Nc2cc(Cl)ccc21	Y
Cc1ccc2c(c1)/C(=N/NC(=O)Cc1ccc(O)cc1)C(=O)N2	Y
COc1ccc(CCC(=O)N/N=C2\C(=O)Nc3c(Cl)ccc(Cl)c32)cc1	N
CC(C(=O)N/N=C1\C(=O)Nc2ccc(S(=O)(=O)NCCN3CCOCC3)cc21)c1ccc(O)cc1 (centres unmarked)	N
CC(C(=O)N/N=C1\C(=O)Nc2cccc(-c3cccc(F)c3)c21)c1ccc(O)cc1 (centres unmarked)	Y
Cc1ccc(C)c2c1NC(=O)/C2=N\NC(=O)CCc1ccc(O)cc1	Y
Cc1ccc(C)c2c1NC(=O)/C2=N\NC(=O)Cc1ccc(O)c(C#N)c1	N
Cc1cc(C)c2c(c1)/C(=N/NC(=O)Cc1ccc(O)cc1)C(=O)N2	Y
COc1cccc(CC(=O)N/N=C2\C(=O)Nc3ccccc32)c1	N
Cn1cc(CC(=O)N/N=C2\C(=O)Nc3ccc(C(=O)N4CCC[C@@H]4CN4CCCC4)c(Cl)c32)ccc1=O	N
CC(C(=O)N/N=C1\C(=O)Nc2ccc(C(=O)N3CC[C@H](N)C3)c(Cl)c21)c1ccc(F)cc1 (some centres unmarked) [Example I-48, trifluoroacetate]	N
Nc1cccc(CC(=O)N/N=C2\C(=O)Nc3c(Cl)ccc(Cl)c32)c1	Y
O=C(Cc1ccc(O)cc1)N/N=C1\C(=O)Nc2cccc(C3CCNCC3)c21	N
O=C(CCc1ccc(O)cc1)N/N=C1\C(=O)Nc2ccccc21 [II-24]	N
O=C(Cc1ccc(O)c(Br)c1)N/N=C1\C(=O)Nc2c(Cl)ccc(Cl)c21	Y
Cc1ccc(C)c2c1NC(=O)/C2=N\NC(=O)CCc1ccc(N)cc1	N
O=C(Cc1ccc(O)c(Cl)c1)N/N=C1\C(=O)Nc2c(Cl)ccc(Cl)c21	Y
CC(C(=O)N/N=C1\C(=O)Nc2ccc(C(=O)N3CCC[C@@H]3CN3CCCC3)c(Cl)c21)c1ccc(F)cc1 (some centres unmarked)	N
O=C(Cc1cc(=O)[nH]cn1)N/N=C1\C(=O)Nc2ccccc21	N
O=C(Cc1ccc(Cl)cc1)N/N=C1\C(=O)Nc2ccccc21 [II-4]	N
O=C(CCc1ccccc1)N/N=C1\C(=O)Nc2c(Cl)ccc(Cl)c21	N
O=C(Cc1ccc(F)cc1)N/N=C1\C(=O)Nc2ccc(Cl)c(Cl)c21	N
N#Cc1cc(CC(=O)N/N=C2\C(=O)Nc3ccccc32)ccc1O	N
